Hello, the source for this data is patent EP1680415B1, in case you need it.

system: HMVEC; assay: human microvascular endothelial (HMVEC) migration assay; format: cell-based; conditions: Homo sapiens; Inhibition of HMVEC migration; 1 nM; activators 15 ng/mL bFGF/VEGF; 4 hours at 37 °C; compared to a positive control
This section presents molecules with their documented inhibition at 0.001 µM values.
outcome_measure: inhibition at 0.001 µM (%)

[[record]]
molecule = "Cc1ccc(C(=O)N2CC[C@@H](NC(=O)N(C)CCc3ccccc3)C2)cn1 [Example 75]"
observed_result = 76

[[record]]
molecule = "CCC1CCCCN1C(=O)N[C@@H]1CCN(C(=O)c2ccc(C)nc2)C1 (some centres unmarked) [Example 68]"
observed_result = 46

[[record]]
molecule = "Cc1ccc(C(=O)N2CC[C@@H](NC(=O)N3CCC(n4c(=O)[nH]c5ccccc54)CC3)C2)c(Cl)n1 [Example 47]"
observed_result = 80

[[record]]
molecule = "CCCCN(CCCC)C(=O)N[C@@H]1CCN(C(=O)c2ccc(C)nc2Cl)C1 [Example 34]"
observed_result = 50

[[record]]
molecule = "Cc1ccc(C(=O)N2CC[C@@H](NC(=O)N(CCc3ccccc3)Cc3ccccc3)C2)cn1 [Example 54]"
observed_result = 78

[[record]]
molecule = "CCCCN(Cc1ccccc1)C(=O)N[C@@H]1CCN(C(=O)c2ccc(C)nc2)C1 [Example 52]"
observed_result = 80

[[record]]
molecule = "CCN(CC)C(=O)C1CCCN(C(=O)N[C@@H]2CCN(C(=O)c3ccc(C)nc3)C2)C1 (some centres unmarked) [Example 55]"
observed_result = 93

[[record]]
molecule = "Cc1ccc(C(=O)N2CC[C@@H](NC(=O)N(Cc3ccccc3)C(C)C)C2)cn1 [Example 51]"
observed_result = 60


====

system: HMVEC; assay: human microvascular endothelial (HMVEC) migration assay; format: cell-based; conditions: Homo sapiens; Inhibition of HMVEC migration; 1 nM; activators 15 ng/mL bFGF/VEGF; 4 hours at 37 °C; compared to a positive control
This section presents compounds with their documented inhibition at 0.001 µM values.
outcome_measure: inhibition at 0.001 µM (%)

[[record]]
compound = "Cc1ccc(C(=O)N2CC[C@@H](NC(=O)NCCCOC(C)C)C2)c(Cl)n1"
outcome_measure = "inhibition at 0.001 µM"
observed_result = 72

[[record]]
compound = "CCCN(C(=O)N[C@@H]1CCN(C(=O)c2ccc(C)nc2)C1)C(C)CC (stereo partly drawn)"
outcome_measure = "inhibition at 0.001 µM"
observed_result = 98

[[record]]
compound = "Cc1ccc(C(=O)N2CC[C@@H](NC(=O)N3CCN(c4ccccc4)CC3)C2)c(Cl)n1"
outcome_measure = "inhibition at 0.001 µM"
observed_result = 78

